- System: D54 ERlucT glycosylation luciferase reporter, luminescence, 24 h
- Protocol Text: N-linked glycosylation inhibitors, luciferase reporter, dose response, D54 ERlucT cells, luminescence, cherry-picks (AID 624491);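 also: signal gain reflects blocked N-linked glycosylation of a luciferase reporter; actives raise luciferase signal so AC26 marks activators of the reporter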
Parameter: AC26. Scope: all listed entries.

{"Molecule": "O=C(Nc1cccc(-c2cn3ccccc3n2)c1)c1cccc(Cl)c1", "Target Or System": "D54 ERlucT glycosylation luciferase reporter, luminescence, 24 h", "AC26": "1.75 µM"}
{"Molecule": "O=C1NC(=O)N(c2ccccc2)C(=O)/C1=C\\C=C\\c1ccccc1", "Target Or System": "D54 ERlucT glycosylation luciferase reporter, luminescence, 24 h", "AC26": "0.679 µM"}
{"Molecule": "Cc1ccnc(NC(=O)CN2C(=O)NC(C)(c3ccc4ccccc4c3)C2=O)c1 (stereo unspecified)", "Target Or System": "D54 ERlucT glycosylation luciferase reporter, luminescence, 24 h", "AC26": "11.4 µM"}
{"Molecule": "CCOC(=O)c1c(NC(=O)CN2C(=O)NC3(CCCCC3C)C2=O)sc(C)c1CC (stereo unspecified)", "Target Or System": "D54 ERlucT glycosylation luciferase reporter, luminescence, 24 h", "AC26": "6.75 µM"}
{"Molecule": "O=c1cc(-c2ccccc2)[nH]c2ccc(F)cc12", "Target Or System": "D54 ERlucT glycosylation luciferase reporter, luminescence, 24 h", "AC26": "0.198 µM"}
{"Molecule": "Cc1ccc(C(=O)Nc2ccc(NC(=O)c3cccs3)cc2)c(C)c1", "Target Or System": "D54 ERlucT glycosylation luciferase reporter, luminescence, 24 h", "AC26": "8.55 µM"}

---

- Test system: D54 ERlucT glycosylation luciferase reporter, luminescence, 24 h
- Protocol Text: N-linked glycosylation inhibitors, luciferase reporter, dose response, D54 ERlucT cells, luminescence, cherry-picks (AID 624491);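 also: signal gain reflects blocked N-linked glycosylation of a luciferase reporter; actives raise luciferase signal so AC26 marks activators of the reporter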

{"Molecule": "CCCCCCn1c(=O)n2n(c1=O)[C@@H]1CN(S(=O)(=O)c3ccc(C)cc3)C[C@]1(O)[C@@H](OC(=O)NCc1ccccc1)C2", "Target Or System": "D54 ERlucT glycosylation luciferase reporter, luminescence, 24 h", "AC26": "763 nM"}
{"Molecule": "Cn1c(C(=O)OCC(=O)NCc2ccc(F)cc2)cc2occc21", "Target Or System": "D54 ERlucT glycosylation luciferase reporter, luminescence, 24 h", "AC26": "8970 nM"}
{"Molecule": "Cc1cc(NC(=O)CSc2nc3c(C)cccc3cc2C#N)no1", "Target Or System": "D54 ERlucT glycosylation luciferase reporter, luminescence, 24 h", "AC26": "3320 nM"}
{"Molecule": "CCN(CC)CCNC(=O)c1cc2c(=O)n(C)c3ccccc3c2s1", "Target Or System": "D54 ERlucT glycosylation luciferase reporter, luminescence, 24 h", "AC26": "3940 nM"}
{"Molecule": "O=C(OCn1ncc(Cl)c(Cl)c1=O)c1ccc(C(F)(F)F)cc1", "Target Or System": "D54 ERlucT glycosylation luciferase reporter, luminescence, 24 h", "AC26": "1130 nM"}
{"Molecule": "COc1cc(-n2c(N)c(C(=O)NCc3ccco3)c3nc4ccccc4nc32)cc(OC)c1OC", "Target Or System": "D54 ERlucT glycosylation luciferase reporter, luminescence, 24 h", "AC26": "2090 nM"}
{"Molecule": "Cc1c(Cl)cccc1Nc1nc(N)nc(CN2CCc3ccccc3C2)n1", "Target Or System": "D54 ERlucT glycosylation luciferase reporter, luminescence, 24 h", "AC26": "320 nM"}
{"Molecule": "O=C(NCC1CCCO1)c1cc(-c2ccc(F)cc2)no1 (stereo not given)", "Target Or System": "D54 ERlucT glycosylation luciferase reporter, luminescence, 24 h", "AC26": "5760 nM"}
{"Molecule": "O=C(N/N=C/c1ccc(Cl)cc1)c1sccc1OCc1ccc(F)cc1", "Target Or System": "D54 ERlucT glycosylation luciferase reporter, luminescence, 24 h", "AC26": "83.6 nM"}
{"Molecule": "CCc1ccc(Nc2n[n+](-c3ccccc3)c(-c3ccc(N(CC)CC)cc3)s2)cc1", "Target Or System": "D54 ERlucT glycosylation luciferase reporter, luminescence, 24 h", "AC26": "7030 nM"}

---

The reader will find reported AC26 values listed item by item below.
- Tested on: D54 ERlucT glycosylation luciferase reporter, luminescence, 24 h
- Protocol Text: N-linked glycosylation inhibitors, luciferase reporter, dose response, D54 ERlucT cells, luminescence, cherry-picks (AID 624491);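 also: signal gain reflects blocked N-linked glycosylation of a luciferase reporter; actives raise luciferase signal so AC26 marks activators of the reporter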
Measured Metric: AC26

{"Molecule": "COc1ccc2c(-c3cc4ccc(OCc5ccc(F)cc5)cc4oc3=O)cc(=O)oc2c1", "Measured Metric": "AC26", "Experimental Result": "4410 nM"}
{"Molecule": "COc1ccc(F)cc1-c1cc(NC(C)=O)c2ncc(-c3cc(OC)c(OC)c(OC)c3)n2c1", "Measured Metric": "AC26", "Experimental Result": "11300 nM"}
{"Molecule": "COc1ccc(/C=C/C(=O)c2ccc3c(c2)OCCO3)cc1[N+](=O)[O-]", "Measured Metric": "AC26", "Experimental Result": "5050 nM"}
{"Molecule": "CCN(CCCNC(=O)COc1cc(=O)n(CC)c2ccccc12)Cc1ccccc1", "Measured Metric": "AC26", "Experimental Result": "2530 nM"}
{"Molecule": "COc1ccc(/C=N/NC(=O)c2ccccc2OCc2ccccc2)c(OC)c1", "Measured Metric": "AC26", "Experimental Result": "1400 nM"}
{"Molecule": "O=C(N/N=C/c1c[nH]c2ccccc12)C1COc2ccccc2O1 (stereo not given)", "Measured Metric": "AC26", "Experimental Result": "1310 nM"}
{"Molecule": "Cn1nc(C(=O)Nc2cccc(S(=O)(=O)N3CCCC3)c2)c2ccccc2c1=O", "Measured Metric": "AC26", "Experimental Result": "666 nM"}
{"Molecule": "O=C(Nc1ccc(Cc2ccncc2)cc1)c1ccc([N+](=O)[O-])o1", "Measured Metric": "AC26", "Experimental Result": "1150 nM"}
{"Molecule": "COc1ccc2cc(CN(CC3CCCO3)C(=O)Nc3ccccc3OC)c(=O)[nH]c2c1 (stereo not given)", "Measured Metric": "AC26", "Experimental Result": "4020 nM"}
{"Molecule": "Fc1ccc(CSc2ccc3nnc(-c4cccnc4)n3n2)cc1", "Measured Metric": "AC26", "Experimental Result": "403 nM"}

---

- Tested on: D54 ERlucT glycosylation luciferase reporter, luminescence, 24 h
- Protocol Text: N-linked glycosylation inhibitors, luciferase reporter, dose response, D54 ERlucT cells, luminescence, cherry-picks (AID 624491);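 also: signal gain reflects blocked N-linked glycosylation of a luciferase reporter; actives raise luciferase signal so AC26 marks activators of the reporter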
Each entry below carries its recorded AC26.
Measured Metric: AC26

{"Molecule": "CCOC(=O)c1ccccc1NS(=O)(=O)c1ccc(OC)cc1", "Experimental Result": "16000 nM"}
{"Molecule": "COc1ccc(NC(=O)c2ccc([N+](=O)[O-])o2)cc1", "Experimental Result": "1020 nM"}
{"Molecule": "CCOC(=O)C(C)Oc1cccc2c(=O)n(CC(=O)NCc3ccco3)ccc12 (configuration not stated)", "Experimental Result": "1380 nM"}
{"Molecule": "c1ccc(CN2CCC(Nc3nc(-c4cccnc4)nc4ccccc34)CC2)cc1", "Experimental Result": "6130 nM"}
{"Molecule": "CCN(CC)CCCNc1nc2cc(OC)c(OC)cc2c2nc(-c3ccccc3)nn12", "Experimental Result": "811 nM"}
{"Molecule": "CCN1C(=O)c2cccc3c(S(=O)(=O)NCC4CCCO4)ccc1c23 (configuration not stated)", "Experimental Result": "2990 nM"}
{"Molecule": "CCN(CC)CCNc1cccc2sc3ccccc3c(=O)c12", "Experimental Result": "4840 nM"}
{"Molecule": "CC(=O)c1sc(Nc2cccc3ccccc23)nc1C", "Experimental Result": "6110 nM"}
{"Molecule": "Cc1c(-c2cccc(Cl)c2)nc2ccccc2c1C(=O)OC/C(O)=C(\\C#N)c1nc2ccccc2[nH]1", "Experimental Result": "5750 nM"}
{"Molecule": "COc1cccc(C2=NOC(C(=O)NCc3ccc(F)cc3)C2)c1 (configuration not stated)", "Experimental Result": "1160 nM"}
{"Molecule": "O=C(CCl)Nc1cn(-c2ccccc2)nc1-c1ccc(F)cc1", "Experimental Result": "3860 nM"}
{"Molecule": "Cc1cc(C)n(-c2nnc3n2N=C(c2c[nH]c4ccccc24)CS3)n1", "Experimental Result": "3510 nM"}
{"Molecule": "O=C(c1cccc(Oc2ccccc2)c1)N1CCN(c2ccccn2)CC1", "Experimental Result": "2190 nM"}
{"Molecule": "Cc1ccc(S(=O)(=O)N(C)C[C@@H]2Oc3ccc(NC(=O)CCC(F)(F)F)cc3CC(=O)N([C@@H](C)CO)C[C@@H]2C)cc1", "Experimental Result": "1470 nM"}
{"Molecule": "COc1ccc(Sc2nnc(Cc3ccccc3)c3ccccc23)cc1", "Experimental Result": "2880 nM"}
{"Molecule": "CCN1CCN(c2ccc([N+](=O)[O-])cc2C(=O)c2ccc(Cl)cc2)CC1", "Experimental Result": "11200 nM"}
{"Molecule": "CC(=O)Nc1cccc(NC(=O)c2ccccc2OCc2ccccc2)c1", "Experimental Result": "1350 nM"}
{"Molecule": "O=C(NCc1cccs1)C1CCN(c2ccc(S(=O)(=O)N3CCOCC3)cc2Cl)CC1", "Experimental Result": "646 nM"}
{"Molecule": "O=S(=O)([N-]c1nc2ccccc2nc1-n1cc[n+](Cc2ccccc2)c1)c1ccc(Cl)cc1", "Experimental Result": "101 nM"}
{"Molecule": "Cc1[nH][nH]c(=O)c1C(c1ccc(-c2ccc(F)cc2)o1)c1c(C)[nH][nH]c1=O", "Experimental Result": "4090 nM"}
{"Molecule": "COc1ccc(NC(=O)c2oc3ccccc3c2NC(=O)c2ccco2)cc1", "Experimental Result": "11700 nM"}
{"Molecule": "Cn1cnc([N+](=O)[O-])c1S(=O)(=O)Oc1ccccc1", "Experimental Result": "1420 nM"}
{"Molecule": "CC(C)(C)c1nnc2sc(SCC(=O)c3ccc4c(c3)OCCO4)nn2c1=O", "Experimental Result": "5230 nM"}
{"Molecule": "O=C1CCNc2cc3ccccc3cc21", "Experimental Result": "32.5 nM"}
{"Molecule": "O=C1[C@H]2[C@@H](c3ccc(F)cc3)N3C(=O)N(c4cccc(Br)c4)C(=O)[C@@]3(Cc3ccccc3)[C@H]2C(=O)N1C1CCCCC1", "Experimental Result": "114 nM"}
{"Molecule": "COc1cc(C(=O)c2cocc2C(=O)c2ccc3c(c2)OCO3)cc(OC)c1OC", "Experimental Result": "111 nM"}
{"Molecule": "CC(=O)Nc1ccc(C(=O)N/N=C/c2ccccc2OCc2ccccc2)cc1", "Experimental Result": "1490 nM"}
{"Molecule": "CCCCCCC(=O)N(O)C1CC(=O)N(Cc2ccccc2)C1=O (configuration not stated)", "Experimental Result": "6200 nM"}
{"Molecule": "N#Cc1ccc(-c2cccs2)nc1SCc1cccnc1", "Experimental Result": "242 nM"}
{"Molecule": "CCN(CC)c1ccc(NC(=O)CC2Oc3ccccc3NC2=O)c(C)c1 (configuration not stated)", "Experimental Result": "11600 nM"}
{"Molecule": "Cc1nc([N+](=O)[O-])c(Sc2nc3ccccc3[nH]2)n1Cc1ccccc1", "Experimental Result": "8510 nM"}
{"Molecule": "C[C@@]12C(=O)Nc3cc(Cl)ccc3C(=O)N1[C@H]1c3cc(Br)ccc3OC[C@@H]1[C@@H]2c1ccccc1", "Experimental Result": "961 nM"}
{"Molecule": "O=C1Nc2ccccc2/C1=C/c1nc2ccccc2c(=O)n1-c1ccc(O)cc1", "Experimental Result": "11500 nM"}
{"Molecule": "Cn1nc(C(F)(F)F)c(/C=N/OC(=O)c2ccccc2Cl)c1SCc1ccccc1Cl", "Experimental Result": "817 nM"}
{"Molecule": "O=C(CNC(=O)c1ccco1)N=Nc1c(O)n(CCc2ccccc2)c2ccccc12", "Experimental Result": "1430 nM"}
{"Molecule": "COc1ccc(CNC(=O)c2cccc3c(-c4cccc(C(N)=O)c4)coc23)cc1OC", "Experimental Result": "663 nM"}
{"Molecule": "COc1ccc(C(=O)NCCN(C)C)c2nc3ccccc3cc12", "Experimental Result": "128 nM"}
{"Molecule": "COc1ccc2noc3c2c1C(=O)c1ccccc1-3", "Experimental Result": "441 nM"}
{"Molecule": "c1ccc(-c2cc(-c3nnc4n3N=C(c3ccc5ccccc5c3)CS4)[nH]n2)cc1", "Experimental Result": "2110 nM"}
{"Molecule": "CN(CCCNC(=O)CCCOc1cc(=O)n(C)c2ccccc12)Cc1ccccc1", "Experimental Result": "5230 nM"}
{"Molecule": "COc1cc(C#Cc2ccc3cc(CCCO)oc(=O)c3c2)cc(OC)c1", "Experimental Result": "161 nM"}
{"Molecule": "CN1CCN(C(=O)/C=C/c2ccc([N+](=O)[O-])o2)CC1", "Experimental Result": "3930 nM"}
